# Test system: K4 kissing-loop RNA reporter;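 note: bound reporter read as fluorescence of individual clusters on recovered sequencing chips by microscopy, with normalized cluster intensities fitted with a binding model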
# PROTOCOL: apparent KD of K4 kissing-loop reporter; higher = weaker reporter binding
# CONDITIONS USED: Eterna round: R107; input ligand: theophylline 20 uM
So I've got a bunch of sequences here, and I need their apparent KD of K4 kissing-loop reporter values.
Hi! Could you send only the number? It should be in nM, unit omitted.

Record summary for GGCACGUUCCCUUGAUCAGUGAUGUUGUUUCGAGGACCGGUACGGCCGCCACUCGCUCGGCGUUCGCCCAGGCCCGGAAAACUGC [theeternabot_exclusion_KL_Trp_A_13] : reported apparent KD of K4 kissing-loop reporter = 217

Input AAUAAAAUCACGGCCGCCACUGAUUACCAUAUUAGGAGUGAUGUUCCUAUGACUAUAUAAUUUAACAGGACCGGGUGAAUAUUUA [JR_ExcTryptoB_Sub011] . Output apparent KD of K4 kissing-loop reporter: 106

// recorded apparent KD of K4 kissing-loop reporter for GGACUACUAUGUCCCAUACAAACAAGAGAUACCAGCCAUCAUAGAGGCCCUUGGCAGCUCAUAUAAUCCAGUGAUGUUGGAUUUC [Beveus] : 136

The measured apparent KD of K4 kissing-loop reporter associated with UGAUAGGACAGAAGGAGCGGGAGUGAUGUUCCCAAAAUGGAAGGUCGACAAAGUCGACCCUCCCAGGUAGGUCGCUGUCCUAUCU [ArgBX 6 #SwitchBubble #StaticStem] reads 99.2

Summary for this sequence, GUGAAGGAGCUGCAGUGAUGUUGCAGAGACUAGGAUAUCAGGAAACUGAGAAGGAGUCAACUCCUUCACCUAGACAACAUCACUA [[F]''-[K1]-[K2]-[F1]-[F2]-[F2]'-[F1]'-[K]'_Design2] : apparent KD of K4 kissing-loop reporter is 269

Looking up UGGAUAUAGUGAUGUUAUAUAGAGAGGGAUACCAGUUUAGAGAAGAACCCUUGGCAGCCUAAAGAAGUAUCAUUAGAGAAGAAUG [ExTheophyl.An] , I see its apparent KD of K4 kissing-loop reporter listed as 324

// apparent KD of K4 kissing-loop reporter value for GCGCGCGGCGGAGGAUAUAGCCGGUGAUCCGAGAAAGUGAGUGAUGUUUACGGAGUUGAGGAUAUGUUAGAAGGCCGCCGCGCGC [abcdefghijklmnopqrstuvwx] : 792

// apparent KD of K4 kissing-loop reporter lookup, sequence = CCCGUACCAGUGAUGUUGGUAUGGUCUGAUACCAGUCUGUAGUCGGGCCCUUGGCAGCAGACCCUUGCCAAGGUGACGACUCCGG [Qu] , result: 131

Entry UGUCAUUGGUCUGAUACCAGUACCCUUGGCAGCCAAGGAGUGAUGUUCCAAGGAUACCAGUGCCCUUGGCAGCAGACCGAUGACU [TheoBS 12 #DoubleAptamer #SwitchBubble] ; apparent KD of K4 kissing-loop reporter = 613

AGGCACGAGCAAGGAUAUCGAGUAGAGUGAUGUUCUGCCUGGGUUGGCUCGAAAGGGCCUUCCCAGCGAGAAGGUGCUCGUGCCU [#2 Same State - FMN A Attempt #14 (HarryS)] yielded apparent KD of K4 kissing-loop reporter of 1040

The value of apparent KD of K4 kissing-loop reporter measured for the sequence GGUGUUGUUUGUGCUGUUUUCUUCGUUUCUCGAGGACCGGUACGGCCGCCACUCGAGUGAUGUUUGGGUAGCGAUCUUUGUUAGU [Bdazzled - #4- Exc. Tryptophan A] turned out to be 339

---

# Test system: MS2 coat protein
# PROTOCOL: apparent KD of MS2 coat protein; designed switch direction (-1 OFF switch, 1 ON switch): 1; higher = weaker reporter binding
# CONDITIONS USED: Eterna round: R95; input ligand: none
Use Criterion met when the recorded apparent KD of MS2 coat protein is no lower than 200 nM; use Criterion not met when it is lower.

Evaluate AGAAAACAUGAGGAUCACCCAUGUAUAGUGAAUACAGGAUAUCACCGGCGGAAUAGCCAGUGAGAAGGGUGAUCGC [Aarusxe] (puzzle: Same State 1) : apparent KD of MS2 coat protein at minimum 200 nM? Criterion not met

Form field: apparent KD of MS2 coat protein at least 200 nM? Entry: AAAAGACAUGAGGAUCACCCAUGUACCAGGUCCACAGGAUAUCAUGCGUGGUUGAAUUCAUGAGAAGGGUGAGACA [Getied] (puzzle: Same State 1) Criterion met

Could you verify whether the entry AUAAAACAUGAGGAUCACCCAUGUCAACAAAGUCGAGGAUAUGGGCAAAUAUAAUAAGAACCAGAAGGCGAAUAAU [salish99_ss1_r3_023] (puzzle: Same State 1) shows apparent KD of MS2 coat protein of no less than 200 nM? Criterion met

Could you verify whether the entry AGGUGAUAUGGAAAGGAUAUACGGUUUAGGACAUGAGGAUCACCCAUGUGGAAGAUGGCGAGAGAGUAGAAGGUUCGAAAUUGGU [JR_SS@_Sub024] (puzzle: Same State 2) shows apparent KD of MS2 coat protein of no less than 200 nM? Criterion not met

Check this sequence for apparent KD of MS2 coat protein at or above 200 nM: AGCUAUGGAAAACUAUAGCAAAAGUAUGUACAUGAGGAUCACCCAUGUCAUGUACAAGCUUUUUGCUCGUCUUAAAA [ak 6 mod of one Eli's designs.] (puzzle: Sensor for hsa-mir-208a) Criterion not met

Identify whether the reported apparent KD of MS2 coat protein of the following sequence is 200 nM or greater: UAAGAACAUGAGGAUCACCCAUGUGGAAAGAACACAGGAUAUCAUAGUAGAACGAGACUAUGAGAAGGGUGACACG [Texeistean] (puzzle: Same State 1) Criterion met

Given GUGGUGUAGAUACAGGAUAUGUUGCUCGUAACAUGAGGAUCACCCAUGUAUCUAUGAGAUUAAAUGCAGAAGGGUGCACACCACA [Mat - Same State 2 - Mod of UCT - D72] (puzzle: Same State 2) , state whether its apparent KD of MS2 coat protein is at least 200 nM. Criterion met

I'd appreciate it if you could say whether CUAUCUACAGGUGUCUUUGCUCGUUUUAUACAUGAGGAUCACCCAUGUUAUAGCCCGGUGCUUGCGCUGGGCUGAUU [JL ViennaUCT Tearor mod 7] (puzzle: Sensor for hsa-mir-208a) has apparent KD of MS2 coat protein at least equal to 200 nM. Criterion not met

Can UGUAUACAUGAGGAUCACCCAUGUCAACGUAGUCGAGGAUAUGGGCAGCCGUGAGGCGUACCAGAAGGCGAAGAGG [JL-ss1-3.05 ViennaUCT mod] (puzzle: Same State 1) be said to have apparent KD of MS2 coat protein at or above 200 nM? Criterion not met

Entry GUUAAACAUGAGGAUCACCCAUGUAAUAAUAUGGGAGGAUAUGCGAAAUUAAUUAAUUAAGCAGAAGGCCUAAUUG [Mat - Same State 1 - D98] (puzzle: Same State 1) : is its apparent KD of MS2 coat protein no less than 200 nM? Criterion met

Would you say CUAAAACAUGAGGAUCACCCAUGUCAACAAAGUCGAGGAUAUGGGCAAAUAAAAUAAGAACCAGAAGGCGAAUAAA [salish99_SS1_r3_015] (puzzle: Same State 1) shows apparent KD of MS2 coat protein at minimum 200 nM? Criterion met

Please tell me: is the sequence AGUCCAGCGAAAGCUGGACAAAAGCAUGUACAUGAGGAUCACCCAUGUUUAUGUACAAGCUUUUUGCUCGUUUUAAA [JL mod - D95 - 16] (puzzle: Sensor for hsa-mir-208a) at or over 200 nM in terms of apparent KD of MS2 coat protein? Criterion met

---

# System: MS2 coat protein
# PROTOCOL: apparent KD of MS2 coat protein; designed switch direction (-1 OFF switch, 1 ON switch): -1; higher = weaker reporter binding
# CONDITIONS USED: input ligand: none
READOUT LABEL: apparent KD of MS2 coat protein
Record the result as number plus unit.

Briefly, apparent KD of MS2 coat protein measured for CCCAACGUAACAGGAUAUGCUGUUGAGGCCGGGCGACCUACAUGAGGAUCACCCAUGUCGAAAUGGCAGAAGGGUUGCCGGGUA [Quatin] (Eterna round: R96, puzzle: Exclusion NG 2) : 0.0944 µM

Short answer for GACGAAAGAGGAUAUACCGUACGACCCUCGUCAGGGAUCCGACAUGAGGAUCACCCAUGUAGAAGGCUUGCGUC [Eternabot (Original) Solution 25] (Eterna round: R97, puzzle: Exclusion 2) : apparent KD of MS2 coat protein was 0.2 µM

The recorded apparent KD of MS2 coat protein for GUUAUCGCAGGAUAUUAGUACUUGUACAUGAGGAUCACCCAUGUUUAUUGGGUCUAAGAAUAAGAAGGGCGAUGAA [JR_Ex5_Sub005] (Eterna round: R97, puzzle: Exclusion 5) is 0.032 µM

For reference, reported apparent KD of MS2 coat protein for CAGUACUGAGGAUAUACAUGAGGAUCACCCAUGUGUGAGAUACUAGUGAGGUCGAUUAGUAGAAGGCAGUACUG [Mat X3R4 m25] (Eterna round: R97, puzzle: Exclusion 3) stands at 0.0263 µM

According to the records, this sequence CUGAGCAGACGGAGAUCCAACAUGAGGAUCACCCAUGUCUCAAAAGCUUUUUGCUCGUCUUAUCCUCCUCUGUUCAC [Esquitian 1] (Eterna round: R97, puzzle: Sensor, turn-off variant 1) displays apparent KD of MS2 coat protein of 0.026 µM

Reference source: the supplement of paper PMC9170038
